Numbers sourced from patent US7056679.

Target: T1, DGI-2 polypeptide (UniProt Q15004 1-111, limits assumed)
T1 construct: Vector-derived residues or tag of pIVEX2.3 are not described for this construct; also called KIAA0101
T1 sequence (looked up): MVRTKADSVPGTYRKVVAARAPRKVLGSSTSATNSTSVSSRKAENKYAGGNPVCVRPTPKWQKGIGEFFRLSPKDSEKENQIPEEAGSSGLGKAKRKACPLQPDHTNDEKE
Assay: phage ELISA, 405 nm; DGI-2 coated
value type: DGI-2 (OD)
One number for each entry, in OD.

DGI-2-40F-3-D1 (not shown: phage gene III coat protein (pCANTAB5E)) peptide: MGQGFHYNRQPYMSHQCYAFTFSTPFLDGDRIPHGVSRGLAAAGAPVPYPDPLEPRP :: 0.8
DGI-2-40F-3-C52 (not shown: phage gene III coat protein (pCANTAB5E)) peptide: GLLFTSSPYQCFWVHCTLTMSPLSVLGDLSSTIGRMRASRAAAGAPVPYPDPLEPRP :: 1
DGI-2-40F-3-D6 (not shown: phage gene III coat protein (pCANTAB5E)) peptide: GLEPVPFQTDKRIAMGWTREWLVNGYGAAHRRDARMQSGHAAAGAPVPYPDPLEPRP :: 2.5

// each binder listed below needs its DGI-2 (OD)
1. DGI-2-40F-3-B4 (not shown: phage gene III coat protein (pCANTAB5E)) peptide: LWLPCGLLVRPAQFYFYFSPLRHFLSSSVGSLSFPLSLLVAAAGAPVPYPDPLEPRP
2. DGI-2-40F-3-C6 (not shown: phage gene III coat protein (pCANTAB5E)) peptide: QMFSKGNWLAHPEGGVALGLSRESQLFRSCREFGYCMGPMAAAGAPVPYPDPLEPRP

**A:**
1
2.3
